We begin with a simple list: items and their reported pKd.
- target.system: T1, IRP1 (iron regulatory protein 1) (rabbit, UniProt Q01059 1-889)
- T1 sequence: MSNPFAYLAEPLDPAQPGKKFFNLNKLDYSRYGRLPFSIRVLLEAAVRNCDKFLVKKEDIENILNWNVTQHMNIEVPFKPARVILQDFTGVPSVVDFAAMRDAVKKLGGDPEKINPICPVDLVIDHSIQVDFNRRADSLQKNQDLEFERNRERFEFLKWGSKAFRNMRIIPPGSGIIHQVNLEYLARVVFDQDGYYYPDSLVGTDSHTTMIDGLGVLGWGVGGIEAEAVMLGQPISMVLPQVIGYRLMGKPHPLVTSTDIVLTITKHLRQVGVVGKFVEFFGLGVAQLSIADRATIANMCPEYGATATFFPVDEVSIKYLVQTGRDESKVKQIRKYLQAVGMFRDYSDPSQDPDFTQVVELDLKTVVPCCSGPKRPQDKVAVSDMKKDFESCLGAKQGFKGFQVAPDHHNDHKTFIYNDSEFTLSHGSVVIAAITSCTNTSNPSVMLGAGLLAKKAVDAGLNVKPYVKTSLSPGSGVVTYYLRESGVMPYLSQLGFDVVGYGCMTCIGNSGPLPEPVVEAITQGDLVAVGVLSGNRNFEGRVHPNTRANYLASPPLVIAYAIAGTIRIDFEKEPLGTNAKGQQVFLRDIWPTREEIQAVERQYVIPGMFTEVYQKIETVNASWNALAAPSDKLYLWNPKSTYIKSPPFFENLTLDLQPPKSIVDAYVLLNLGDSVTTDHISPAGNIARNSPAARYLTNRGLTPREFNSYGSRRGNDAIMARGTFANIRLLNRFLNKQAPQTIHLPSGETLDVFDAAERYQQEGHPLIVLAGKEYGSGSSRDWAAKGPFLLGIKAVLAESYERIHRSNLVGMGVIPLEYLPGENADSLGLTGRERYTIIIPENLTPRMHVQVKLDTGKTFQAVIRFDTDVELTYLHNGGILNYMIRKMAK
- protocol.details: fluorescence anisotropy; 25 °C, no Mn2+; 40 mM HEPES pH 7.2, 100 mM KCl, 5-30 °C, ±50 µM Mn2+; labeled RNA 50 nM or 100 nM (Methods)
- experimental.setup: protein: recombinant; label: 5' fluorescein; hairpin
# pKd: negative log10 of molar concentration; output just the value

Lookup: Item under review: CCUCAUCUUUGUCAGUGCACAAAAUGGCG (structured_RNA) [ACO2 IRE-RNA (mitochondrial aconitase IRE)] . Reported pKd?
Found: 6.89

New cases:
Lookup: Item under review: GUUCUUGCUUCAACAGUGUUUGAACGGAAC (structured_RNA) [FRT IRE-RNA (ferritin IRE)] . Reported pKd?
Found: 7.85

The measurements presented in this section are drawn from paper PMC5561112.
